List of LD50 values.
- assay-remarks: Acute toxicity, DL-50 I.V. in male mice
- setup-conditions: mouse, in vivo, iv, lots de 10 souris mâles

>  <compound>
COc1cc(OC)c(C(=O)CCCN2CCCCC2)c(OC)c1

>  <LD50>
68 mg/kg

$$$$
>  <compound>
COc1cc(OC)c(C(=O)CCCN2CCCCCC2)c(OC)c1

>  <LD50>
96 mg/kg

$$$$
>  <compound>
COc1cc(OC)c(C(=O)CCCN2CCCC2)c(OC)c1 [LL 1656, reference compound]

>  <LD50>
60 mg/kg

$$$$

Data origin, for the record: patent EP0110748A1
